REPORTED_ENDPOINT: melting point

Recorded results for 8 molecules are shown here.
{"MOLECULE": "Nc1nc2c(s1)CC(NC(=O)CNC(=O)[C@@H](Cc1ccccc1)NS(=O)(=O)Cc1ccccc1)CC2 (stereo partly drawn)", "melting point": "119 to 122 °C"}
{"MOLECULE": "O=C1c2ccccc2C(Nc2ccccc2)N1CCCN1CC=C(c2ccccc2)CC1 (stereo not drawn)", "melting point": "119 °C"}
{"MOLECULE": "Clc1cc(CCc2ccccn2)c2oc(-c3cnc4ccccc4c3)nc2c1", "melting point": "124 to 125 °C"}
{"MOLECULE": "CCOP(=O)(OCC)C(F)(F)c1ccc(NC(=O)CCc2oc(-n3cnc4ccccc43)nc2-c2ccc(Cl)cc2)cc1", "melting point": "155 to 156 °C"}
{"MOLECULE": "CCn1nc2c(N)nc3ncccc3c2c1CC(C)(C)O", "melting point": "283 to 286 °C"}
{"MOLECULE": "COc1cccc(CC(=O)O)c1OCCCn1cc(C(=O)NCc2ccc(Cl)cc2Cl)c(OC(C)C)n1", "melting point": "134 to 135 °C"}
{"MOLECULE": "COc1ccccc1C(=O)N1CCCC2=C1CCc1cc(Cl)ccc12", "melting point": "139 °C"}
{"MOLECULE": "COc1cc(COc2nn(-c3ccccc3)cc2/C=C/P(=O)(O)O)ccc1OCc1nc(-c2ccco2)oc1C", "melting point": "138 to 140 °C"}

Problem: melting point for CC(C(=O)c1c(O)c2cccnc2n(-c2cccc(C(F)(F)F)c2)c1=O)c1ccccc1 (stereo not drawn) ?
Result: 200 to 201 °C

Problem: Likewise for O=C(O)CCCC=C1SC[C@H]2[C@@H]1N(Cc1ccccc1)C(=O)N2Cc1ccccc1 ?
Result: 79 to 82 °C

Problem: Likewise for Cc1ccc(C(=O)Nc2cn(C3CCCCO3)nc2C(=O)NCC(F)(F)F)cn1 (stereo not drawn) ?
Result: 132 to 133 °C

Problem: Likewise for NC(=NO)c1ccc(-c2ccc(N)cc2)o1 ?
Result: 180 to 183 °C

Problem: Likewise for CC1(C)CCC(C)(C)c2cc3c(cc21)C(C)(C)CCC3(C)C ?
Result: 218 to 221 °C
